For each record, write down the corresponding pIC50.
MEASURED_ON: Induced myeloid leukemia cell differentiation protein Mcl-1 [171-327] (Homo sapiens)
Construct: 171-327
Sequence (Q07820 171-327): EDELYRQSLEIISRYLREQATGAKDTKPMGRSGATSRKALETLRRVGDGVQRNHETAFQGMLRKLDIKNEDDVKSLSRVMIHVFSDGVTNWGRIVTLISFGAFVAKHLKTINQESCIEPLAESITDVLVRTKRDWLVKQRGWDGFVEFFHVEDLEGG
TEST_DETAILS: Time-Resolved Fluorescence Resonance Energy Transfer (TR-FRET) Assay
As a rule, pIC50 stands for the negative log10 of the concentration, concentration in M.

Prompt: I am curious: what pIC50 value has been reported for COC(=O)[C@H](NC(=O)C[C@]1(OC)/C=C/C[C@H](C)[C@@H](C)S(=O)(=O)NC(=O)c2ccc3c(c2)N(C[C@@H]2CC[C@H]21)C[C@@]1(CCCc2cc(Cl)ccc21)CO3)[C@@H](C)O ?
Completion: 9.44

Prompt: I am curious: what pIC50 value has been reported for CCO[C@@]1(CN2CCN(C3(C)COC3)CC2)/C=C/C[C@H](C)[C@@H](C)S(=O)(=O)NC(=O)c2ccc3c(c2)N(C[C@@H]2CC[C@H]21)C[C@@]1(CCCc2cc(Cl)ccc21)CO3 ?
Completion: 9.49

Prompt: I am curious: what pIC50 value has been reported for CCO[C@@]1(CN2CCC(N(CCOC)CCOC)CC2)/C=C/C[C@H](C)[C@@H](C)S(=O)(=O)NC(=O)c2ccc3c(c2)N(C[C@@H]2CC[C@H]21)C[C@@]1(CCCc2cc(Cl)ccc21)CO3 ?
Completion: 9.24

Prompt: I am curious: what pIC50 value has been reported for CO[C@@]1(CC(N)=O)/C=C/C[C@H](C)[C@@H](C)S(=O)(=O)NC(=O)c2ccc3c(c2)N(C[C@@H]2CC[C@H]21)C[C@@]1(CCCc2cc(Cl)ccc21)CO3 ?
Completion: 8.74
